Target: CFTR (Homo sapiens)
Sequence (P13569 with tags, fused parts or gaps DEL508-508): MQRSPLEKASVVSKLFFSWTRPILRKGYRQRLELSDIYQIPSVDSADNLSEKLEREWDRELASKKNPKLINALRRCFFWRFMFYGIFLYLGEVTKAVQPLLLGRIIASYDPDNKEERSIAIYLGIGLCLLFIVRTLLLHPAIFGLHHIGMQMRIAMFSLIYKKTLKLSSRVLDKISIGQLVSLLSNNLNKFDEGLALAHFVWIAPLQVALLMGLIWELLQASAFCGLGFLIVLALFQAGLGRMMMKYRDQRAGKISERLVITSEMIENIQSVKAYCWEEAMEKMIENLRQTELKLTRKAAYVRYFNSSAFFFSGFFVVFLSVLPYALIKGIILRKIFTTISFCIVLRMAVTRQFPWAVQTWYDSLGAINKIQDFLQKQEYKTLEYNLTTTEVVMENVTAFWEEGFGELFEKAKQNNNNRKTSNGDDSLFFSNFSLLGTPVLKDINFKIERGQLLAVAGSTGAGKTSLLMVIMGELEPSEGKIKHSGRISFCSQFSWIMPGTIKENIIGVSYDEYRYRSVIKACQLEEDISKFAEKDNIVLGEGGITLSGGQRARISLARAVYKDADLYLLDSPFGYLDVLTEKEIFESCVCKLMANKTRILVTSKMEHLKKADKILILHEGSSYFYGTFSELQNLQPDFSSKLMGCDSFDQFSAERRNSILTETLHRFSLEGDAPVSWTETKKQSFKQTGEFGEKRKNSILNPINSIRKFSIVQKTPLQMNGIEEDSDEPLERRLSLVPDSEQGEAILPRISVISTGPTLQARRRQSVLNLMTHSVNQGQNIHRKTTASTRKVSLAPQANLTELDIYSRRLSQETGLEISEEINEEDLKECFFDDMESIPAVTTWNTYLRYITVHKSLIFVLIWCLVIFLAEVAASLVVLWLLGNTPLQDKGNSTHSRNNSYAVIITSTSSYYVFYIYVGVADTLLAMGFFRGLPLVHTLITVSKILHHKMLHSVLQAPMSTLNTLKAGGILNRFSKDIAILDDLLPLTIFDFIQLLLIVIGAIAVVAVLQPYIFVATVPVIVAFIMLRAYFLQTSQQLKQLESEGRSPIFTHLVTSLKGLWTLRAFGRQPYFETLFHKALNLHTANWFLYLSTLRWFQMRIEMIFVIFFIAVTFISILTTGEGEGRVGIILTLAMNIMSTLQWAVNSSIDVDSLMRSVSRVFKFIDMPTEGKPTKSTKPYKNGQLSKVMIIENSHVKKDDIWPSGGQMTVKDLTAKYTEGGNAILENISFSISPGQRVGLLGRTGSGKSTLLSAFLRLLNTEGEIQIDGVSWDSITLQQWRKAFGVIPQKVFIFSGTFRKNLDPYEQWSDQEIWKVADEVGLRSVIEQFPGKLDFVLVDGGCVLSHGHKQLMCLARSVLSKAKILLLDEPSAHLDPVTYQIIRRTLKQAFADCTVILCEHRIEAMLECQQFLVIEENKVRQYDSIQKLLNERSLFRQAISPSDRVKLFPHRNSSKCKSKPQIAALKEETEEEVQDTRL
Assay: Membrane potential dye, Enteroid Assay A
Assay type: cell-based
Conditions: Table 7; chloride transport as % of triple combination control (Enteroid Assay A)
READOUT_NAME: Ent. A Max Activity

- MOLECULE: "Cc1cccc(C)c1-c1cc2nc(n1)NS(=O)(=O)c1cccc(c1)C(=O)N(Cc1ccc(N3CCC(C)(O)CC3)nc1)[C@H](CC(C)C)CO2"
  RECORDED_MEASUREMENT: "+++ (+++ is >60%)"
- MOLECULE: "Cc1cccc(C)c1-c1cc2nc(n1)NS(=O)(=O)c1cccc(c1)CN(Cc1ccccc1OCc1ccccc1)[C@H](CC(C)C)CO2"
  RECORDED_MEASUREMENT: "++ (++ is 30-60%)"
- MOLECULE: "Cc1cccc(C)c1-c1cc2nc(n1)NS(=O)(=O)c1cccc(c1)C(=O)N(CCC(C)(C)C)[C@H](CC(F)(F)F)CO2 [Compound 985]"
  RECORDED_MEASUREMENT: "++ (++ is 30-60%)"
- MOLECULE: "Cc1cccc(C)c1-c1cc2nc(n1)NS(=O)(=O)c1cccc(c1)C(=O)N(CCC(C)(C)C)[C@H](CC(F)(F)F)CO2 [Compound 984]"
  RECORDED_MEASUREMENT: "++ (++ is 30-60%)"
- MOLECULE: "Cc1cccc(C)c1-c1cc2nc(n1)NS(=O)(=O)c1cccc(c1)C(=O)N(CC1CC3(CCN(C)CC3)C1)[C@H](CC(C)C)CO2"
  RECORDED_MEASUREMENT: "+++ (+++ is >60%)"
- MOLECULE: "Cc1cccc(C)c1-c1cc2nc(n1)NS(=O)(=O)c1cccc(c1)C(=O)N(C)C[C@@H](c1ccc(C(C)(C)C)cn1)O2 (single isomer, unassigned)"
  RECORDED_MEASUREMENT: "+ (+ is <30%)"
- MOLECULE: "Cc1cccc(C)c1-c1cc2nc(n1)NS(=O)(=O)c1cccc(c1)CN(C(=O)CC1CCN(C)CC1)[C@H](CC(C)C)CO2"
  RECORDED_MEASUREMENT: "+++ (+++ is >60%)"
- MOLECULE: "Cc1cccc(C)c1-c1cc2nc(n1)NS(=O)(=O)c1cccc(c1)C(=O)N(Cc1ccc(N3CCC[C@@H]3C)nc1)[C@H](CC(C)C)CO2"
  RECORDED_MEASUREMENT: "+++ (+++ is >60%)"
- MOLECULE: "Cc1cccc(C)c1-c1cc2nc(n1)NS(=O)(=O)c1cccc(c1)C(=O)N(Cc1cccn(C)c1=O)[C@H](CC(C)C)CO2"
  RECORDED_MEASUREMENT: "+++ (+++ is >60%)"
- MOLECULE: "Cc1cccc(C)c1-c1cc2nc(n1)NS(=O)(=O)c1cccc(c1)C(=O)N(C)C[C@H](c1cccc(C(C)(C)C)c1)O2 (single isomer, unassigned)"
  RECORDED_MEASUREMENT: "+ (+ is <30%)"
- MOLECULE: "CNC(=O)c1ccc(CN2C(=O)c3cccc(c3)S(=O)(=O)Nc3nc(cc(-c4c(C)cccc4C)n3)OC[C@H]2CC2(C(F)(F)F)CC2)cc1 [Compound 682]"
  RECORDED_MEASUREMENT: "+ (+ is <30%)"
- MOLECULE: "Cc1cccc(C)c1-c1cc2nc(n1)NS(=O)(=O)c1cccc(c1)C(=O)N(CCC1CCOCC1)[C@H](CC1(C(F)(F)F)CC1)CO2 [Compound 680]"
  RECORDED_MEASUREMENT: "+ (+ is <30%)"
- MOLECULE: "Cc1cccc(C)c1-c1cc2nc(n1)NS(=O)(=O)c1cccc(c1)CN(Cc1ccccc1-c1ccccc1)[C@H](CC(C)C)CO2"
  RECORDED_MEASUREMENT: "++ (++ is 30-60%)"
- MOLECULE: "Cc1cccc(C)c1-c1cc2nc(n1)NS(=O)(=O)c1cccc(c1)CN(CCC(C)CC(C)(C)C)[C@H](CC(C)C)CO2 (stereo partly drawn)"
  RECORDED_MEASUREMENT: "++ (++ is 30-60%)"
- MOLECULE: "Cc1cccc(C)c1-c1cc2nc(n1)NS(=O)(=O)c1cccc(c1)C(=O)N(Cc1ccc(N(C)C)nc1)[C@H](CC(C)C)CO2"
  RECORDED_MEASUREMENT: "+++ (+++ is >60%)"
- MOLECULE: "Cc1cccc(C)c1-c1cc2nc(n1)NS(=O)(=O)c1cccc(c1)C(=O)N(Cc1ccc(N3CCC(CO)CC3)nc1)[C@H](CC(C)C)CO2"
  RECORDED_MEASUREMENT: "+++ (+++ is >60%)"
- MOLECULE: "Cc1cccc(C)c1-c1cc2nc(n1)NS(=O)(=O)c1cccc(c1)CN(C(=O)Cc1ccccc1)[C@H](CC(C)C)CO2"
  RECORDED_MEASUREMENT: "++ (++ is 30-60%)"
- MOLECULE: "Cc1cccc(C)c1-c1cc2nc(n1)NS(=O)(=O)c1cccc(c1)C(=O)N(CCC1CCN(C(C)C)CC1)[C@H](CC(C)C)CO2"
  RECORDED_MEASUREMENT: "+++ (+++ is >60%)"
- MOLECULE: "Cc1cccc(C)c1-c1cc2nc(n1)NS(=O)(=O)c1cccc(c1)C(=O)N(C)C[C@H](c1ccc(-c3ccc(C(C)(C)C)cc3)cn1)O2 [Compound 510]"
  RECORDED_MEASUREMENT: "+++ (+++ is >60%)"
- MOLECULE: "Cc1cccc(C)c1-c1cc2nc(n1)NS(=O)(=O)c1cccc(c1)C(=O)N(Cc1ccc(N3C[C@@H](O)[C@@H](O)C3)nc1)[C@H](CC(C)C)CO2"
  RECORDED_MEASUREMENT: "+++ (+++ is >60%)"
- MOLECULE: "Cc1cccc(C)c1-c1cc2nc(n1)NS(=O)(=O)c1cccc(c1)CN(Cc1ccc3c(c1)OC(F)(F)O3)[C@H](CC(C)C)CO2"
  RECORDED_MEASUREMENT: "++ (++ is 30-60%)"

====

Target: UniProt:P13569
Experiment: Membrane potential dye, Enteroid Assay B
Type: cell-based
Conditions: Table 9; read-out: Ent. B EC50
pEC50: −log10 of the molar value.

- MOLECULE: "COC(=O)c1ccc(CCN2C(=O)c3cccc(c3)S(=O)(=O)Nc3nc(cc(-c4c(C)cccc4C)n3)OC[C@H]2CC(C)(C)C)cc1"
  pEC50: "> 6.00"
- MOLECULE: "Cc1cccc(C)c1-c1cc2nc(n1)NS(=O)(=O)c1cccc(c1)C(=O)N(Cc1ccc(-c3cn[nH]c3)cc1)[C@H](CC(C)(C)C)CO2"
  pEC50: "> 6.00"
- MOLECULE: "Cc1cccc(C)c1-c1cc2nc(n1)NS(=O)(=O)c1cccc(c1)C(=O)N(Cc1ncccc1N)[C@H](CC(C)(C)C)CO2"
  pEC50: "> 6.00"
- MOLECULE: "Cc1cccc(C)c1-c1cc2nc(n1)NS(=O)(=O)c1cccc(c1)C(=O)N(Cc1ccc(S(F)(F)(F)(F)F)cc1)[C@H](CC(C)(C)C)CO2"
  pEC50: "> 6.00"
- MOLECULE: "Cc1cccc(C)c1-c1cc2nc(n1)NS(=O)(=O)c1cccc(c1)C(=O)N(CC1CC(O)(Cc3ccccc3)C1)[C@H](CC(C)(C)C)CO2 (single isomer, unassigned) [Compound 68]"
  pEC50: "> 6.00"
- MOLECULE: "Cc1cccc(C)c1-c1cc2nc(n1)NS(=O)(=O)c1cccc(c1)C(=O)N(CC1CN(C(=O)CO)C1)[C@H](CC(C)(C)C)CO2"
  pEC50: "4.52 to 5.52"
- MOLECULE: "Cc1cccc(C)c1-c1cc2nc(n1)NS(=O)(=O)c1cccc(c1)C(=O)N(Cc1cnc(C(C)(C)C)nc1)[C@H](CC(C)(C)C)CO2"
  pEC50: "> 6.00"
- MOLECULE: "Cc1cccc(C)c1-c1cc2nc(n1)NS(=O)(=O)c1cccc(c1)C(=O)N(Cc1ccc3c(c1)oc(=O)n3C)[C@H](CC(C)(C)C)CO2"
  pEC50: "> 6.00"
- MOLECULE: "Cc1cccc(C)c1-c1cc2nc(n1)NSc1cccc(c1)C(=O)N(Cc1ccc(C(C)(C)O)nc1)[C@H](CC(C)(C)C(F)(F)F)CO2"
  pEC50: "> 6.00"
- MOLECULE: "Cc1cccc(C)c1-c1cc2nc(n1)NS(=O)(=O)c1cccc(c1)C(=O)N(Cc1ccc(CC(N)=O)cc1)[C@H](CC(C)(C)C)CO2"
  pEC50: "> 6.00"

====

Biological target: CFTR (Homo sapiens)
Assay: Membrane potential dye, Enteroid Assay B
Type: cell-based
Details: Table 6; human enteroid cells, 18-24 hours; acute 10 μM forskolin and 300 nM ivacaftor; read-out: Ent. B EC50
pEC50: −log10 of the molar value.
The reader will find reported pEC50 values listed item by item below.

- SMI: "COCCN1C(=O)c2cccc(c2)S(=O)(=O)Nc2nc(cc(-c3c(C)cccc3C)n2)OC[C@H]1CC(C)C"
  pEC50: "> 6.00"
- SMI: "Cc1cccc(C)c1-c1cc2nc(n1)NS(=O)(=O)c1cccc(c1)C(=O)N(Cc1ccc(N3CCC(C)CC3)nc1)[C@H](CC(C)C)CO2"
  pEC50: "> 6.00"
- SMI: "Cc1cccc(C)c1-c1cc2nc(n1)NS(=O)(=O)c1cccc(c1)C(=O)N(Cc1ncccn1)[C@H](CC(C)C)CO2"
  pEC50: "> 6.00"
